// data source = ChEMBL document CHEMBL1125797

# Test system: Rattus norvegicus
# TEST NAME: Biodistribution of compound in rat blood after 5 min of administration
# Type: ADME, organism-based
# COND: in vivo
READOUT NAME: Dose/g

>>> print(df.to_string())
                substance             system  measured
0  BIS(TOLUENE)TECHNETIUM  Rattus norvegicus      0.2%

* * *

# Test system: Rattus norvegicus
# TEST NAME: Biodistribution of compound in rat liver after 5 min of administration
# Format: ADME, organism-based
# COND: in vivo
READOUT NAME: Dose/g (%)

>>> print(df.to_string())
                substance             system  readout_name  measured
0  BIS(TOLUENE)TECHNETIUM  Rattus norvegicus        Dose/g       2.6
